Origin of values: patent US20240417370A1

- Tested on: human IgG in mouse serum
- ASSAY PROTOCOL: Immunoglobulin G (IgG) mRNA in vivo evaluation using lipid nanoparticle compositions
- Parameters: species or system mice
- COND: LNP-formulated lipid, 0.3 mg mRNA/kg, tail vein injection, μg IgG/mL serum 24 hours after administration
Classification field: enter Met for Serum IgG @ 0.3 mg/kg values not below 30 µg/mL, Not met for values below it.

Is reported Serum IgG @ 0.3 mg/kg greater than or equal to 30 µg/mL here: CCCCCCCCCCN(CCCCCCCCCC)C(=O)CCCCCCCN(CCCCCCCC(=O)N(CCCCCCCCCC)CCCCCCCCCC)[C@H]1CC[C@@H](O)CC1
Met

Reported Serum IgG @ 0.3 mg/kg at or above 30 µg/mL? CCCCCCCCCCN(CCCCCCCCCC)C(=O)CCCCCCCN(CCCCCCCC(=O)N(CCCCCCCCCC)CCCCCCCCCC)[C@@H]1CCC[C@@H](O)C1
Not met

Item CCCCCCCCCCN(CCCCCCCCCC)C(=O)CCCCCCCN(CCCCCCCC(=O)N(CCCCCCCCCC)CCCCCCCCCC)[C@H]1C[C@@H](CO)C1 with Serum IgG @ 0.3 mg/kg of 30 µg/mL or above?
Not met

# bool: Serum IgG @ 0.3 mg/kg of CCCCCCCCCCN(CCCCCCCCCC)C(=O)CCCCCCCN(CCCCCCCC(=O)N(CCCCCCCCCC)CCCCCCCCCC)C1CCCC1O (racemic) [(rac)-(1RS, 2SR) I-48] >= 30 µg/mL
Met

Please tell me: is the compound CCCCCCCCCCN(CCCCCCCCCC)C(=O)CCCCCCCN(CCCCCCCC(=O)N(CCCCCCCCCC)CCCCCCCCCC)[C@H]1CCCC[C@H]1O at or over 30 µg/mL in terms of Serum IgG @ 0.3 mg/kg?
Not met

Determine whether this compound has Serum IgG @ 0.3 mg/kg no lower than 30 µg/mL: CCCCCCCCCCCCN(CCCCCCCC)C(=O)CCCCCCCN(CCCCCCCC(=O)N(CCCCCCCC)CCCCCCCCCCCC)[C@H]1CC[C@@H](O)CC1
Met

###

Quick reference: Serum IgG @ 0.3 mg/kg of the listed items.
- System: human IgG in mouse serum
- ASSAY PROTOCOL: Immunoglobulin G (IgG) mRNA in vivo evaluation using lipid nanoparticle compositions
- Parameters: species or system mice
- COND: LNP-formulated lipid, 0.3 mg mRNA/kg, tail vein injection, μg IgG/mL serum 24 hours after administration
Response body: numeric value in µg/mL, unit text excluded.

Some molecules with recorded Serum IgG @ 0.3 mg/kg:
MOLECULE	Serum IgG @ 0.3 mg/kg (µg/mL)
CCCCCCCCCCN(CCCCCCCCCC)C(=O)CCCCCCCN(CCCCCCCC(=O)N(CCCC)C(CCCCCCCC)CCCCCCCC)[C@H]1CC[C@@H](O)CC1 [(1S, 4S) I-59]	84.23
CCCCCCCCCCN(CCCCCCCCCC)C(=O)CCCCCCCN(CCCCCCCC(=O)N(CCCCCCCCCC)CCCCCCCCCC)[C@H]1CCC[C@H]1O [(1S, 2R) I-15]	33.97
CCCCCCCCCCN(CCCCCCCCCC)C(=O)CCCCCCCCCN(CCCCCCCCCC(=O)N(CCCCCCCCCC)CCCCCCCCCC)[C@H]1CC[C@@H](O)CC1 [(1S, 4S) I-60]	15.65
CCCCCCCCCCN(CCCCCCCCCC)C(=O)CCCCCCCN(CCCCCCCC(=O)N(CCCCCCCCCC)CCCCCCCCCC)C[C@H]1C[C@H]1CO (racemic) [(rac)-(1RS, 2SR) I-45]	15.84
CCCCCCCCCCN(CCCCCCCCCC)C(=O)CCCCCCCN(CCCCCCCC(=O)N(CCCCCCCCCC)CCCCCCCCCC)[C@H]1C[C@@H](O)C1 [(1S, 3S) I-10]	27.62

Given item CCCCCCCCCCN(CCCCCCCCCC)C(=O)CCCCCCCN(CCCCCCCC(=O)N(CCCCCCCCCC)CCCCCCCCCC)[C@H]1CC[C@@H](CO)CC1 [(1S, 4S) I-23] , the value recorded as its Serum IgG @ 0.3 mg/kg is 34.48

Measured Serum IgG @ 0.3 mg/kg of CCCCCCCCCC(CCCCCCCCC)NC(=O)CCCCCCCN(CCCCCCCC(=O)NC(CCCCCCCCC)CCCCCCCCC)[C@H]1CC[C@@H](O)CC1 [(1S, 4S) I-50] : 29.82

// field: Serum IgG @ 0.3 mg/kg; key: CCCCCCCCCCN(CCCCCCCCCC)C(=O)C(F)CCCCCCN(CCCCCCC(F)C(=O)N(CCCCCCCCCC)CCCCCCCCCC)[C@H]1CC[C@H](O)CC1 (stereo partly drawn) [(1R, 4R) I-49] ; value = 28.94

// sample CCCCCCCCCCN(CCCCCCCCCC)C(=O)CCCCCCCN(CCCCCCCC(=O)N(CCCCCCCCCC)CCCCCCCCCC)[C@H]1CC[C@](C)(O)CC1 [(1R, 4R) I-25] , its Serum IgG @ 0.3 mg/kg was 14.03

Serum IgG @ 0.3 mg/kg recorded for this molecule, CCCCCCCCC(CCCCCCCC)N(CCCC)C(=O)CCCCCCCN(CCCCCCCC(=O)N(CCCC)C(CCCCCCCC)CCCCCCCC)[C@H]1CC[C@@H](O)CC1 [(1S, 4S) I-54] , is 43.22

The molecule listed as CCCCCCCCCCN(CCCCCCCCCC)C(=O)CCCCCCCN(CCCCCCCC(=O)N(CCCCCCCCCC)CCCCCCCCCC)[C@H]1C[C@H](CO)C1 [(1R, 3R) I-24] shows Serum IgG @ 0.3 mg/kg equal to 6.93

For record CCCCCCCCCCN(CCCCCCCCCC)C(=O)CCCCCCCN(CCCCCCCC(=O)N(CCCCCCCCCC)CCCCCCCCCC)[C@H]1C[C@H](O)C[C@H](O)C1 [(1s, 3R, 5S) I-34] the listed Serum IgG @ 0.3 mg/kg is 7.06

Looking up CCCCCCCCCCN(CCCCCCCCCC)C(=O)C(F)CCCCCCN(CCCCCCC(F)C(=O)N(CCCCCCCCCC)CCCCCCCCCC)CC[C@H]1C[C@@H](O)C1 (stereo partly drawn) [(1S, 3R) I-19] , I found its Serum IgG @ 0.3 mg/kg recorded as 30.68

Recorded result, CCCCCCCCCCN(CCCCCCCCN(CCCCCCCC(=O)N(CCCCCCCCCC)CCCCCCCCCC)C[C@H]1C[C@@H](O)C1)C(=O)CCCCCCCCC [(1S, 3S) I-21] , Serum IgG @ 0.3 mg/kg: 71.49

Sample CCCCCCCCCCN(CCCCCCCCCC)C(=O)CCCCCCCN(CCCCCCCC(=O)N(CCCCCCCCCC)CCCCCCCCCC)[C@@H]1CCC[C@@H]1O [(1R, 2S) I-48] ; Serum IgG @ 0.3 mg/kg observed: 28.32

The value of Serum IgG @ 0.3 mg/kg measured for the molecule CCCCCCCCCCN(CCCCCCCCCC)C(=O)CCCCCCCN(CCCCCCCC(=O)N(CCCCCCCCCC)CCCCCCCCCC)C1CC2(CC(O)C2)C1 (centres unmarked) [Compound I-36] turned out to be 25.76

Recorded Serum IgG @ 0.3 mg/kg (molecule CCCCCCCCCCN(CCCCCCCCN(CCCCCCCCN(CCCCCCCCCC)C(=O)CCCCCCCCC)[C@H]1CC[C@@H](O)CC1)C(=O)CCCCCCCCC [(1S, 4S) I-63] ): 39.32

So, CCCCCCCCCCN(CCCCCCCCN(CCCCCCCCN(CCCCCCCCCC)C(=O)CCCCCCCCC)C[C@H]1C[C@H](O)C1)C(=O)CCCCCCCCC [(1R, 3R) I-22] ? Its Serum IgG @ 0.3 mg/kg was 19.88

Form field Serum IgG @ 0.3 mg/kg, entry CCCCCCCCCCN(CCCCCCCCCC)C(=O)CCCCCCCN(CCCCCCCC(=O)N(CCCCCCCCCC)CCCCCCCCCC)[C@@H]1CC[C@H](O)C1 (racemic) [(rac)-(1RS, 3SR) I-14] : 15.74

# Serum IgG @ 0.3 mg/kg (molecule: C=CCCCCCCCCN(CCCCCCCCC=C)C(=O)CCCCCCCN(CCCCCCCC(=O)N(CCCCCCCCC=C)CCCCCCCCC=C)[C@H]1CC[C@@H](O)CC1 [(1S, 4S) I-53] ) is 81.56

# Serum IgG @ 0.3 mg/kg (molecule: CCCCCCCCCCN(CCCCCCCCN(CCCCCCCCN(CCCCCCCCCC)C(=O)CCCCCCCCC)C[C@H]1C[C@@H](O)C1)C(=O)CCCCCCCCC [(1S, 3S) I-22] ) is 50.48

So for CCCCCCCCCCN(CCCCCCCCCC)C(=O)CCCCCCCN(CCCCCCCC(=O)N(CCCCCCCCCC)CCCCCCCCCC)[C@H]1CC[C@H](O)CC1 [(1R, 4R) I-9] , the logged Serum IgG @ 0.3 mg/kg turned out to be 45.52

get_value(item= CCCCCCCCCCN(CCCCCCCCCC)C(=O)CCCCCCCN(CCCCCCCC(=O)N(CCCCCCCCCC)CCCCCCCCCC)CC1CCC(O)C1 (centres unmarked) [Compound I-4] , readout=Serum IgG @ 0.3 mg/kg) returns 32.39
